Test: Growth inhibition of human LOXIMVI cells
Type: functional
Settings: LOX IMVI
quantity_kind: GI50 (nM)
Number only, in nM; omit the unit.

[in] // GI50 lookup, key: `COc1cc(-n2n[n+](C)c3c2C(=O)c2ccccc2C3=O)cc(OC)c1OC.O=S(=O)([O-])C(F)(F)F`
[out] 1190

[in] Give its GI50 value. Item: `COc1cc(OC)cc(-n2n[n+](C)c3c2C(=O)c2ccccc2C3=O)c1.O=S(=O)([O-])C(F)(F)F`
[out] 1710

[in] Would you kindly share the measured GI50 for `C[n+]1nn(-c2ccccc2)c2c1C(=O)c1ccccc1C2=O.[Cl-]` ?
[out] 1160

[in] Name the reported GI50 value associated with the compound `COc1ccc(-n2n[n+](C)c3c2C(=O)c2ccccc2C3=O)cc1OC.O=S(=O)([O-])C(F)(F)F`
[out] 1140

---

System: SNB-19
Assay: Growth inhibition of human SNB19 cells
Format: functional
quantity_kind: GI50 (nM)
# number only, unit nM dropped from output

[in] Form field - read-out: GI50; system: SNB-19; submitted item: `Cc1ccc(-n2n[n+](C)c3c2C(=O)c2ccccc2C3=O)cc1.O=S(=O)([O-])C(F)(F)F`
[out] 1390

[in] Please state recorded GI50 (tested on SNB-19) of `C[n+]1nn(-c2ccccc2)c2c1C(=O)c1ccccc1C2=O.[Cl-]`
[out] 1070

[in] GET /values?readout=GI50&system=SNB-19&item= `COc1cc(-n2n[n+](C)c3c2C(=O)c2ccccc2C3=O)cc(OC)c1OC.O=S(=O)([O-])C(F)(F)F`
[out] 1400

[in] Write down the reported GI50 of `C[n+]1nn(-c2ccc(F)cc2)c2c1C(=O)c1ccccc1C2=O.O=S(=O)([O-])C(F)(F)F` , test system: SNB-19.
[out] 1370

[in] I'm curious: which GI50 was measured for `C[n+]1nn(-c2ccc(C(F)(F)F)cc2)c2c1C(=O)c1ccccc1C2=O.O=S(=O)([O-])C(F)(F)F` tested on SNB-19?
[out] 1450

[in] GI50 of `COc1ccc(-n2n[n+](C)c3c2C(=O)c2ccccc2C3=O)cc1OC.O=S(=O)([O-])C(F)(F)F` on SNB-19?
[out] 1140

[in] Could you share what GI50 was measured for `COc1ccc(-n2n[n+](C)c3c2C(=O)c2ccccc2C3=O)cc1.O=S(=O)([O-])C(F)(F)F` , tested on SNB-19?
[out] 1010

[in] Find the measured GI50: item `COc1cc(OC)cc(-n2n[n+](C)c3c2C(=O)c2ccccc2C3=O)c1.O=S(=O)([O-])C(F)(F)F` , target or system SNB-19.
[out] 1250

---

Experiment: Growth inhibition of human UACC257 cells
Type: functional
Settings: UACC-257, read-out: LC50 (the source's name)
quantity_kind: CC50 (µM)
Kindly provide the numeric value in µM only, without the unit symbol.

[in] Given the entry `C[n+]1nn(-c2ccc(C(F)(F)F)cc2)c2c1C(=O)c1ccccc1C2=O.O=S(=O)([O-])C(F)(F)F` , report its measured CC50.
[out] 43.1

[in] What does the data say about its CC50? Entry: `COc1ccc(-n2n[n+](C)c3c2C(=O)c2ccccc2C3=O)cc1.O=S(=O)([O-])C(F)(F)F`
[out] 5.52

[in] If you can, please state the reported CC50 value of `C[n+]1nn(-c2ccccc2)c2c1C(=O)c1ccccc1C2=O.[Cl-]` .
[out] 4.49

[in] Bench note: what CC50 did `COc1ccc(-n2n[n+](C)c3c2C(=O)c2ccccc2C3=O)cc1OC.O=S(=O)([O-])C(F)(F)F` show?
[out] 5.34

[in] Consider the compound shown here: `Cc1ccc(-n2n[n+](C)c3c2C(=O)c2ccccc2C3=O)cc1.O=S(=O)([O-])C(F)(F)F` What is its recorded CC50?
[out] 17.7

[in] Any idea what CC50 was measured for `C[n+]1nn(-c2ccc(F)cc2)c2c1C(=O)c1ccccc1C2=O.O=S(=O)([O-])C(F)(F)F` ?
[out] 6.93

[in] Given the entry `COc1cc(-n2n[n+](C)c3c2C(=O)c2ccccc2C3=O)cc(OC)c1OC.O=S(=O)([O-])C(F)(F)F` , report its measured CC50.
[out] 5.81

[in] I would be grateful if you could share the reported CC50 for `COc1cc(OC)cc(-n2n[n+](C)c3c2C(=O)c2ccccc2C3=O)c1.O=S(=O)([O-])C(F)(F)F` .
[out] 5.3
